# Lookup of reported pKd keyed by entry
Target: T1, PUF4 RNA-binding domain (Saccharomyces cerevisiae, UniProt P25339 537-888)
T1 sequence: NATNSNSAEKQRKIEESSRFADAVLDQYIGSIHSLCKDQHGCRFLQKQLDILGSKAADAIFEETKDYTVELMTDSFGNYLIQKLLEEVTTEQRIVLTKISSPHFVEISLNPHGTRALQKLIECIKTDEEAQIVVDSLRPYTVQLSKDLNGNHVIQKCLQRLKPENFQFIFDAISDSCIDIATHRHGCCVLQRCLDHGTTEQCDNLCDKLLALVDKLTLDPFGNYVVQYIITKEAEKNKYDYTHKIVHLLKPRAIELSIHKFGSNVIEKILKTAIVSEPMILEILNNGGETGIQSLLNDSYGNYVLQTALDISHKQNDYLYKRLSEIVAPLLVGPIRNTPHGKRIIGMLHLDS
Test: Mg; RNA-MaP; 20 mM Na-HEPES pH 7.4, 30 mM KOAc, 0.75 mM MgCl2, 0.1% Tween-20, 5% glycerol, 0.1 mg/mL BSA, 2 mM DTT; 25 C; 0.0125-409.6 nM protein
Conditions: tags: N-His6-TEV cleaved; C-SNAP kept, Cy3B-labelled; label: tethered on chip by stalled RNA polymerase
Scale for pKd: -log10 of concentration given in mol/L; no unit attached.

May I ask what pKd has been recorded for UCUCUUUGUAAGUUAAUCUCUU (ssRNA) [Ic_S1_P5E.1_K5.1_C5.1_H5.1_A5.1_[T5A]_[T6G]_[A7T]_F5.1_[T9A]_T5.1] ?
7.18

Next binder: ACAAACUCUAUAUUAUUACGACAAAC (ssRNA) [Id_ii_S3_P5E.3_K5.2_C5.2_[C-2T]_[T-1C]_H5.2_A5.1_F5.1_T5.2_[T11C]_[A12G]]
6.64

What do you get for Ic_S4_P5E.1_K5.1_C5.1_H5.1_A5.1_[T5C]_[A7T]_F5.1_[T8C]_[T9G]_[A10T]_T5.1 (ssRNA) RNA: UUUGACAACUGAUCGUUCUUUCUUGUACUUCGUUUCUUUCUCGAUCAGUUGUCUUU ?
6.70

Please answer likewise for UCUCUUUCUAUAUAUAUUUCUCUU (ssRNA) [Id_ii_S1_P3E.3_K3.2_C3.2_[C-2T]_[T-1C]_H3.2_A3.1_F3.1_T3.2_[A10T]]
6.23

Ie_S2_P5E.1_K5.1_C5.1_H5.1_A5.1_F5.1_[+9T]_T5.1 (ssRNA) RNA: UUUGAUUAAUAUGAUAUCGUUCUUUCUUGUAUUAUUUAUUCUUUCUCGAUAUCAUAUUAAUCUUU , same question.
8.23

Also check Ie_S4_P4E.1_K4.1_C4.1_H4.1_[+2TTCC]_A4.1_F4.1_T4.1 (ssRNA) RNA: UUUGACAACUGAUCGUUCUUUCUUGUUCCUAUAUUAUUCUUUCUCGAUCAGUUGUCUUU
7.62
